- System: MT3
- test-description: Cell proliferation Ex.3
- Format: cell-based
- condition-notes: MT-3; MT3, 120 h
reported-metric: pIC50
Please treat pIC50 as minus the base-10 logarithm of the molar concentration.

Looking for the measured pIC50 of C#C[C@]1(CO)O[C@@H](n2cc(F)c(N)nc2=O)C[C@@H]1O , can you help?
5.52

====

- Tested on: CACO2
- test-description: Cell proliferation Ex.3
- Assay type: cell-based
- condition-notes: Homo sapiens, Caco-2; CACO2, 168 h
pIC50: −log10 of the molar value.
reported-metric: pIC50

Dear colleague, I am looking for the recorded pIC50 of the following molecule: C#C[C@]1(CO)O[C@@H](n2cc(F)c(N)nc2=O)C[C@@H]1O [compound 9]
< 5.00

====

- System: cancer cell lines
- test-description: Cancer cell proliferation activity of representative nucleosides, CellTiterGlo 72 h (Example 7, Tables 8 and 9)
- Assay type: cell-based
- condition-notes: Homo sapiens, Caco-2, 72 h, CACO2, colon, 72 h
reported-metric: IC50

Solved entries:
# line-notation, experimental-target, IC50
measured = [
    ("CC[C@]1(CO)O[C@@H](n2ccc(N)nc2=O)C[C@@H]1O", "cancer cell lines", "> 50 µM"),
    ("C#C[C@]1(CO)O[C@@H](n2cc(F)c(=O)[nH]c2=O)C[C@@H]1O", "cancer cell lines", "> 50 µM"),
    ("C#C[C@]1(CO)O[C@@H](n2cnc3c(=O)[nH]c(N)nc32)C[C@@H]1O", "cancer cell lines", "> 50 µM"),
    ("C#C[C@]1(CO)O[C@@H](n2cc(F)c(N)nc2=O)C[C@@H]1O", "cancer cell lines", "> 50 µM"),
]

Entry C[C@]1(CO)O[C@@H](n2ccc(N)nc2=O)C[C@@H]1O : reported IC50 = ?
2.96 µM

Look up IC50: CC[C@]1(CO)O[C@@H](n2cnc3c(N)nc(N)nc32)C[C@@H]1O
> 50 µM

Param item = N#C[C@]1(CO)O[C@@H](n2ccc(N)nc2=O)C[C@@H]1O ; retrieve measured IC50.
> 50 µM

====

- Tested on: CACO2
- test-description: Cell proliferation Ex.3
- Format: cell-based
- condition-notes: Homo sapiens, Caco-2; CACO2, 72 h
reported-metric: IC50

Return reported IC50; argument: C#C[C@]1(CO)O[C@@H](n2cc(F)c(N)nc2=O)C[C@@H]1O
> 10 µM

====

- Test system: JAR
- test-description: Cell proliferation Ex.3
- Format: cell-based
- condition-notes: 72 h
pIC50: −log10 of the molar value.
reported-metric: pIC50

Entry C#C[C@]1(CO)O[C@@H](n2cc(F)c(N)nc2=O)C[C@@H]1O : reported pIC50 = ?
< 5.00

====

- Tested on: cancer cell lines
- test-description: Cancer cell proliferation activity of representative nucleosides, CellTiterGlo 72 h (Example 7, Tables 8 and 9)
- Type: cell-based
- condition-notes: Homo sapiens, 786-0, 72 h, 786O, kidney, 72 h
reported-metric: IC50 (µM)
Unit µM implied. Number only.

What does the data say about its IC50? Entry: N#C[C@]1(CO)O[C@@H](n2ccc(N)nc2=O)C[C@@H]1O [compound 29]
1.61

# query: IC50 of entry C#C[C@]1(CO)O[C@@H](n2cc(F)c(N)nc2=O)C[C@@H]1O [compound 9]
3.54

Query (compound): C#C[C@]1(CO)O[C@@H](n2ccc(N)nc2=O)C[C@@H]1O [compound 7] ; field requested: IC50
4.28

Recorded IC50 for C[C@]1(CO)O[C@@H](n2ccc(N)nc2=O)C[C@@H]1O [compound 30] , please?
0.38

====

- Test system: MDAMB468
- test-description: Cell proliferation Ex.3
- Type: cell-based
- condition-notes: Homo sapiens, MDA-MB-468; MDAMB468, 168 h
pIC50: −log10 of the molar value.
reported-metric: pIC50

# input compound: C#C[C@]1(CO)O[C@@H](n2cc(F)c(N)nc2=O)C[C@@H]1O [compound 9] ; wanted: its pIC50
< 5.00

====

- Tested on: cancer cell lines
- test-description: Cancer cell proliferation activity of representative nucleosides, CellTiterGlo 72 h (Example 7, Tables 8 and 9)
- Assay type: cell-based
- condition-notes: 72 h, PC3, prostate
reported-metric: IC50 (µM)
Report the figure in µM without appending any unit label.

The examples below pair each entry with its known result.
# line-notation, recorded-measurement
records = [
    ("N#C[C@]1(CO)O[C@@H](n2ccc(N)nc2=O)C[C@@H]1O", 0.2),
    ("CC[C@]1(CO)O[C@@H](n2cnc3c(N)nc(N)nc32)C[C@@H]1O", 3.02),
    ("C#C[C@]1(CO)O[C@@H](n2cc(F)c(N)nc2=O)C[C@@H]1O", 6.33),
    ("C#C[C@]1(CO)O[C@@H](n2ccc(N)nc2=O)C[C@@H]1O", 1.09),
    ("C#C[C@]1(CO)O[C@@H](n2cnc3c(=O)[nH]c(N)nc32)C[C@@H]1O", 1.8),
]

Consider now this further molecule.
API: value(readout=IC50, system=cancer cell lines) for record C[C@]1(CO)O[C@@H](n2ccc(N)nc2=O)C[C@@H]1O
0.15

====

- System: MCF7
- test-description: Cell proliferation Ex.3
- Assay type: cell-based
- condition-notes: Homo sapiens, MCF7, 72 h
reported-metric: IC50

Given the entry C#C[C@]1(CO)O[C@@H](n2cc(F)c(N)nc2=O)C[C@@H]1O [compound 9] , report its measured IC50.
> 10 µM

====

- System: cancer cell lines
- test-description: Cancer cell proliferation activity of representative nucleosides, CellTiterGlo 72 h (Example 7, Tables 8 and 9)
- Type: cell-based
- condition-notes: Homo sapiens, HCT-15, 72 h, HCT15, 72 h (Table 9)
List of IC50 values.

Some entries whose results are on file:
# compound, IC50
data = [
    ("Cc1cn([C@H]2C[C@H](O)[C@@](C#N)(CO)O2)c(=O)[nH]c1=O [compound 31]", "> 50 µM"),
    ("C#C[C@]1(CO)O[C@@H](n2cnc3c(N)nc(F)nc32)C[C@@H]1O [Islatravir (EFdA), Islatravir, reference compound]", "5.9 µM"),
]

Entry under review: Nc1nc(=O)n([C@@H]2C=C[C@H](CO)O2)cc1F [Elvucitabine, reference compound] . Reported IC50?
> 50 µM

Query (compound): Nc1ccn([C@H]2C[C@H](O)[C@](CO)(CF)O2)c(=O)n1 [compound 32] ; field requested: IC50
0.46 µM

====

- Test system: COLO205
- test-description: Cell proliferation Ex.3
- Assay type: cell-based
- condition-notes: Homo sapiens, COLO 205; COLO205, 168 h
reported-metric: IC50 (nM)
Output spec: scalar in nM, unitless text.

Which IC50 value belongs to C#C[C@]1(CO)O[C@@H](n2cc(F)c(N)nc2=O)C[C@@H]1O ?
870

====

- System: SKNAS
- test-description: Cell proliferation Ex.3
- Type: cell-based
- condition-notes: Homo sapiens, SK-N-AS, 168 h
reported-metric: IC50

Form field: IC50 recorded for C#C[C@]1(CO)O[C@@H](n2cc(F)c(N)nc2=O)C[C@@H]1O with SKNAS (enter value)
> 10 µM

====

- System: cancer cell lines
- test-description: Cancer cell proliferation activity of representative nucleosides, CellTiterGlo 72 h (Example 7, Tables 8 and 9)
- Format: cell-based
- condition-notes: NCI-H358M, 72 h, NCIH358M, lung
Consider the following compounds and their measured IC50 readings.
Number only, in nM; omit the unit.

Item under review: CC[C@]1(CO)O[C@@H](n2ccc(N)nc2=O)C[C@@H]1O [compound 21] . Reported IC50?
1490

Which measured IC50 value corresponds to N#C[C@]1(CO)O[C@@H](n2ccc(N)nc2=O)C[C@@H]1O [compound 29] ?
40

Name the reported IC50 value associated with the compound C#C[C@]1(CO)O[C@@H](n2cc(F)c(=O)[nH]c2=O)C[C@@H]1O [compound 15]
670

For C#C[C@]1(CO)O[C@@H](n2cnc3c(=O)[nH]c(N)nc32)C[C@@H]1O [compound 13] , what is its reported IC50?
330

Look up IC50 for this compound: C#C[C@]1(CO)O[C@@H](n2ccc(N)nc2=O)C[C@@H]1O [compound 7]
290

Give the measured IC50 of CC[C@]1(CO)O[C@@H](n2cnc3c(N)nc(N)nc32)C[C@@H]1O [compound 25] .
1630

Consider the compound shown here: C[C@]1(CO)O[C@@H](n2ccc(N)nc2=O)C[C@@H]1O [compound 30] What is its recorded IC50?
50

====

- Test system: OCI-LY19
- test-description: Cell proliferation CellTiterGlo Ex.2
- Assay type: cell-based
- condition-notes: Homo sapiens; OCI-LY19 (Blood), 72 h
reported-metric: pIC50
Here pIC50 is given on a logarithmic scale as minus log10 of the concentration in mol/L.

Entry C#C[C@]1(CO)O[C@@H](n2cnc3c(=O)[nH]c(N)nc32)C[C@@H]1O has what pIC50?
6.25
